biological target: Sphingosine 1-phosphate receptor 1 (Homo sapiens); experiment: Induction of beta-arrestin2 recruitment to human S1PR1 expressed in CHOK1 cells after 2 hrs by beta-galactosidase assay
Sequence (P21453 whole entry): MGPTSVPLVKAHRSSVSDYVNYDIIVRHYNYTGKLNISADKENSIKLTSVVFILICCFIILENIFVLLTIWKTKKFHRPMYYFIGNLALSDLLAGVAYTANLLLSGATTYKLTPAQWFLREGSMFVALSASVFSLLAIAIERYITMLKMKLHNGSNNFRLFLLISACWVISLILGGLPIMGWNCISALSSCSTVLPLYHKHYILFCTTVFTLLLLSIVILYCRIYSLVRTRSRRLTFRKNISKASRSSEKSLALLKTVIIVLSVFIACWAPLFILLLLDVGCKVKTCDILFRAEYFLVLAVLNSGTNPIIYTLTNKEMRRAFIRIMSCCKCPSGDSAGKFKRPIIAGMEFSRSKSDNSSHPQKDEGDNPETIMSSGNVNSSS
PROPERTY NAME: EC50 (µM)

COMPOUND | PROPERTY NAME | UNITS LABEL | EXPERIMENTAL VALUE
Cc1ccc(S(=O)(=O)Nc2nc3n(n2)C(c2ccccc2)C=C(c2ccccc2)N3)cc1 (stereo not drawn) | EC50 | µM | 50.1

A = CC(=O)N1CCc2cc(Br)cc(S(=O)(=O)N3CCC(O)(c4cccc(C(F)(F)F)c4)CC3)c21
B = O=C(Nc1nc2ccc(-c3nc4ccccc4[nH]3)cc2s1)C1CCCCC1
# input Param metric = EC50; output whichever of A , B has the minimum value. # respond with the chosen item's label
# output B

###

biological target: Adenosine receptor A2a (Homo sapiens)
Sequence (P29274 whole entry): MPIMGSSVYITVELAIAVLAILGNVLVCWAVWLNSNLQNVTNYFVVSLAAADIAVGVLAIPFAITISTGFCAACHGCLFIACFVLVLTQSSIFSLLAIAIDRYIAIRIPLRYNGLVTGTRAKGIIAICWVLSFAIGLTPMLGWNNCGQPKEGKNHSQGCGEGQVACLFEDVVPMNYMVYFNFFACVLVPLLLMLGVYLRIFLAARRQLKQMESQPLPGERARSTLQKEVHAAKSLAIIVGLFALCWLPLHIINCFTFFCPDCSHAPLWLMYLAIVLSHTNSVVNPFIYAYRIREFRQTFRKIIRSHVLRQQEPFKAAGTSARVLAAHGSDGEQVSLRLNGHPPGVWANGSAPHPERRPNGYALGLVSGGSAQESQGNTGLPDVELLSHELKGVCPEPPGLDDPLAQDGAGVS
PROPERTY NAME: Ki (nM)

Here's what some known entries look like.
COMPOUND | PROPERTY NAME | EXPERIMENTAL VALUE
N#C/C(=N\Nc1ccc(S(N)(=O)=O)cc1)c1nc2ccccc2[nH]1 | Ki | 5010
Cc1ccc2[nH]c3nc(SCC(=O)Nc4ncc(C)s4)nnc3c2c1 | Ki | 3980
CCOC(=O)c1nc[nH]c1/N=N/c1c(O)ccc2ccccc12 | Ki | 1260
CC1CCN(C(=O)c2ccc3c(=O)[nH]c4c(-c5ccccc5)nnn4c3c2)CC1 | Ki | 2510
Cc1cccc2sc(NC(=O)CNS(=O)(=O)c3cccs3)nc12 | Ki | 1580

P = CC1=C(C(=O)Nc2nc3ccccc3s2)C(c2ccco2)C(C#N)=C(SCC(N)=O)N1 (centres undefined)
Q = N#CCSc1nc2cc(C(=O)N3CCC(C(N)=O)CC3)ccc2c2nc3ccccc3n12
R = Cc1nc2[nH]c3ccccc3n2c(=O)c1CCOC(=O)C1CCCCC1
S = Nc1ccc(C(=O)Nc2ccc(O)c(-c3nc4ccccc4[nH]3)c2)cc1
# input // ascending sort on recorded Ki Give the labels in the order requested.
# output Q, S, R, P
(Q: 1000 nM, S: 1580 nM, R: 2510 nM, P: 6310 nM)

###

pKi tested on Beta-2 adrenergic receptor (Homo sapiens): recorded values
Sequence (P07550 whole entry): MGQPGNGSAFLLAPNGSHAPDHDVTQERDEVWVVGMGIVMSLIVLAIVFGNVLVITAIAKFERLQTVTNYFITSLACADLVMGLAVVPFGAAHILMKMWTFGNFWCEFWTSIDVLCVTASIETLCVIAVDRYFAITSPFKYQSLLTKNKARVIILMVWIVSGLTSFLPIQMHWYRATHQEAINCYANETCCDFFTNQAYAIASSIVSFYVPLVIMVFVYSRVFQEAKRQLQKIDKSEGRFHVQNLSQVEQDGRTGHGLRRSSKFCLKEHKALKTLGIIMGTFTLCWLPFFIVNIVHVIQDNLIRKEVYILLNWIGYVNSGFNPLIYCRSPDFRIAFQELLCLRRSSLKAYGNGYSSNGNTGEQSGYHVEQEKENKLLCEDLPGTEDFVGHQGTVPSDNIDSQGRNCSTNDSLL
pKi: −log10 of the molar value.
PROPERTY NAME: pKi

Here's what some known entries look like.
MOLECULE | pKi
Cc1ccc(C)c(OCC(O)CNC2CCCC2)c1 (centres undefined) | 5.70
Cc1ccc(C(C)C)c(OCC(O)CN2CCN(CCO)CC2)c1 (centres undefined) | 4.40

1 = CC(=O)c1c(CSc2ccccc2)oc2ccc(O)c(CN(C)C)c12
2 = O=C1Cc2ccccc2Sc2c(OCCN3CCCCC3)cccc21
# input Select the item with the higher value of pKi from the options 1 and 2 listed. # respond with the chosen item's label
# output 1
(1: 4.40, 2: 3.10)
